Where do the numbers come from? From patent US10202350B2.

- Tested system: MCT4 (Homo sapiens (Human), UniProt O15427)
- Sequence (O15427 whole entry, looked up): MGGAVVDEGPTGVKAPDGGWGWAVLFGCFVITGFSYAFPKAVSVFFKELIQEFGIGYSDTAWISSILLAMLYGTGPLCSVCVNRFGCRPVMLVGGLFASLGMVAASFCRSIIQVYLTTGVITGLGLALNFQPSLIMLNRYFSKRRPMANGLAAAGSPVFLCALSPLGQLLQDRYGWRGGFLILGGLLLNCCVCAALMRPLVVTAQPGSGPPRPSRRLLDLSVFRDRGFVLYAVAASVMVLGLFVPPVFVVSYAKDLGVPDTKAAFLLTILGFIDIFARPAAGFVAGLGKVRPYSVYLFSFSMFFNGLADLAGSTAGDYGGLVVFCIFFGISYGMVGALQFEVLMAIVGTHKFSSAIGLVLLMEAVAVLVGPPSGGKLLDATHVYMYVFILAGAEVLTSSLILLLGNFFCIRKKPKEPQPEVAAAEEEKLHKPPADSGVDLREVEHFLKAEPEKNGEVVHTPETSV
- Sequence (P35613 whole entry partner, looked up): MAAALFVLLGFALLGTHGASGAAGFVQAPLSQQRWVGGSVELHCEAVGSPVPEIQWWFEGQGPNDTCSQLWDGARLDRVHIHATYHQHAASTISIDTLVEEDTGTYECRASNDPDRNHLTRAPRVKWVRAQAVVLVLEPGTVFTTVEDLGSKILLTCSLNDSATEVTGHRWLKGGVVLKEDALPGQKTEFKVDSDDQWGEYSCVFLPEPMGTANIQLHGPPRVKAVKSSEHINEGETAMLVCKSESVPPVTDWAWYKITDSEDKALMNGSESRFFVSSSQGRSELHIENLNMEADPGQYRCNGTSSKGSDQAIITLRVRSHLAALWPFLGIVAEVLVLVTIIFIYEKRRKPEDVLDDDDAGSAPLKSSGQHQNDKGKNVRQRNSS
- Method description: MCT4-mediated lactate transport in NCI-H358 lung adenocarcinoma cells
- Type: cell-based
- Settings: native MCT4, 50 mM L-lactate
- Experimental: Cells (˜7×10^6) are trypsinized (0.05% Trypsin-EDTA), pelleted (300 g, 5 min), and resuspended in 1 mL Tyrode's Solution, pH 7.4 (119 mM NaCl, 5 mM KCl, 25 mM HEPES, pH 7.4, 2 mM CaCl2, 2 mM MgCl2, 6 g/L glucose). 10 μL of a 30 mM DMSO stock of BCECF-AM ester (Life Technologies) is added and the cells are incubated at 37° C. for 5 min. […]
Assay metric: IC50 (nM)

CC(C)(OCc1cc(-c2cccc(C(F)(F)F)c2)n(Cc2ccccc2Cl)n1)C(=O)O [Example 13] : 22

A. CC(C)(OCc1cc(-c2cccc(F)c2)n(Cc2ccccc2Cl)n1)C(=O)O [Example 12]
B. CC(C)(OCc1cc(-c2ccc(Cl)cc2)n(Cc2ccc(Cl)cc2)n1)C(=O)O [Example 2]
QUERY: Which record shows the lower IC50: the first, A , or the second, B ? Response format: the label of the selected entry.
RESULT: A
(A: 49 nM, B: 240 nM)

A. CC(C)(OCc1cc(-c2ccccc2Cl)n(Cc2ccccc2Cl)n1)C(=O)O [Example 9]
B. COc1cccc(-c2cc(COC(C)(C)C(=O)O)nn2Cc2ccccc2Cl)c1 [Example 14]
C. CC(C)(OCc1cc(-c2ccc(Cl)cc2)n(Cc2ccc(Cl)cc2Cl)n1)C(=O)O [Example 5]
D. CC(C)(OCc1cc(-c2ccccc2)n(Cc2cccc(Cl)c2)n1)C(=O)O [Example 1]
QUERY: Ascending by IC50, please: list the compounds accordingly. Respond with the label ranking, as requested.
RESULT: B, C, D, A
(B: 44 nM, C: 63 nM, D: 140 nM, A: 340 nM)

###

- Tested system: UniProtKB O15427
- Method description: MCT4-mediated lactate transport in NCI-H358 lung adenocarcinoma cells
- Format: cell-based
- Settings: native MCT4, 50 mM L-lactate
- Experimental: Cells (˜7×10^6) are trypsinized (0.05% Trypsin-EDTA), pelleted (300 g, 5 min), and resuspended in 1 mL Tyrode's Solution, pH 7.4 (119 mM NaCl, 5 mM KCl, 25 mM HEPES, pH 7.4, 2 mM CaCl2, 2 mM MgCl2, 6 g/L glucose). 10 μL of a 30 mM DMSO stock of BCECF-AM ester (Life Technologies) is added and the cells are incubated at 37° C. for 5 min. […]
Assay metric: IC50 (nM)

Example entries and their recorded answers appear below.
CC(C)(OCc1cc(-c2nccs2)n(Cc2ccccc2Cl)n1)C(=O)O : 4200
CC(C)(OCc1cc(-c2ccc(Cl)cc2)n(Cc2ccncc2)n1)C(=O)O : 48000
CC(C)(OCc1cc(-c2ccc(Cl)cc2)n(Cc2ccccc2F)n1)C(=O)O : 160
CC(C)(OCc1cc(C2CCCC2)n(Cc2ccccc2Cl)n1)C(=O)O : 640

I. O=C(O)COCc1cc(-c2ccc(Cl)cc2)n(Cc2ccc(Cl)cc2Cl)n1
II. CC(C)(OCc1cc(C2CCCCC2)n(Cc2ccccc2Cl)n1)C(=O)O
QUERY: Which record shows the lower IC50: the first, I , or the second, II ? Response format: the label of the selected entry.
RESULT: II

###

- Tested system: MCT1 (Homo sapiens (Human))
- Method description: MCT1-mediated lactate transport in BT20 breast cancer cells
- Assay type: cell-based
- Settings: native MCT1, 10 mM L-lactate, Table 2
Assay metric: IC50 (nM)

P. CC(C)(OCc1cc(-c2ccccc2)n(Cc2ccccc2Cl)n1)C(=O)O
Q. O=C(O)COCc1cc(-c2ccc(Cl)cc2)n(Cc2ccc(Cl)cc2Cl)n1
R. CC(C)(OCc1cc(-c2ccc(Cl)cc2)n(Cc2ccccn2)n1)C(=O)O
S. CC(C)(OCc1cc(-c2ccc(Cl)cc2)n(Cc2ccccc2Cl)n1)C(=O)O
QUERY: Put the entries in order of IC50, starting with the largest number. Respond with the label ranking, as requested.
RESULT: R, P, S, Q
(R: 150000 nM, P: 46000 nM, S: 25000 nM, Q: 6600 nM)

###

- Tested system: MCT4 (Homo sapiens (Human))
- Method description: MCT4-mediated lactate transport in MDA-MB-231 breast cancer cells
- Format: cell-based
- Settings: MDA-MB-231 cells, native MCT4; 50 mM L-lactate
Assay metric: IC50 (nM)

Example entries and their recorded answers appear below.
CC(C)(OCc1cc(-c2cccc(CN3CCOCC3)c2)n(Cc2ccccc2Cl)n1)C(=O)O : 520
CC(C)Oc1cccc(-c2cc(COC(C)(C)C(=O)O)nn2Cc2ccccc2Cl)c1 : 5.2
CC(C)C(=O)Nc1cccc(-c2cc(COC(C)(C)C(=O)O)nn2Cc2ccccc2Cl)c1 : 5800

I. CN(C)c1cccc(-c2cc(COC(C)(C)C(=O)O)nn2Cc2ccccc2Cl)c1
II. COc1cc(-c2cc(COC(C)(C)C(=O)O)nn2Cc2ccccc2Cl)cs1
QUERY: Which record shows the lower IC50: the first, I , or the second, II ? Response format: the label of the selected entry.
RESULT: II

A. CC(C)(OCc1cc(-c2cccc(OCC3CCCC3)c2)n(Cc2ccccc2Cl)n1)C(=O)O
B. CC(C)(OCc1cc(-c2cncs2)n(Cc2ccccc2Cl)n1)C(=O)O
QUERY: Parameter check: reported IC50 is higher for which label, A or B ? Response format: the label of the selected entry.
RESULT: B
(B: 240 nM, A: 1.1 nM)

I. COc1cccc(-c2cc(COC(C)(C)C(=O)O)nn2Cc2ccccc2C(C)C)c1
II. CC(C)(OCc1cc(-c2cccc(S(C)(=O)=O)c2)n(Cc2ccccc2Cl)n1)C(=O)O
QUERY: Which record shows the lower IC50: the first, I , or the second, II ? Response format: the label of the selected entry.
RESULT: I

a. COCc1cccc(-c2cc(COC(C)(C)C(=O)O)nn2Cc2ccccc2Cl)c1
b. COc1csc(-c2cc(COC(C)(C)C(=O)O)nn2Cc2ccccc2Cl)c1
QUERY: Parameter check: reported IC50 is higher for which label, a or b ? Response format: the label of the selected entry.
RESULT: a

1. COc1cccc(-c2cc(COC(C)(C)C(=O)O)nn2Cc2ccccc2Cl)c1
2. CC(C)(OCc1cc(-c2cccc(N3CCOCC3)c2)n(Cc2ccccc2Cl)n1)C(=O)O
QUERY: Which record shows the lower IC50: the first, 1 , or the second, 2 ? Response format: the label of the selected entry.
RESULT: 1

a. CCC(C)(OCc1cc(-c2cccc(OC)c2)n(Cc2ccccc2Cl)n1)C(=O)O (centres unmarked)
b. COc1cccc(Cn2nc(COC(C)(C)C(=O)O)cc2-c2cccc(OCC(C)C)c2)c1
QUERY: Parameter check: reported IC50 is higher for which label, a or b ? Response format: the label of the selected entry.
RESULT: b
(b: 33 nM, a: 9.1 nM)

P. CC(C)(OCc1cc(-c2cccc(OC3CCC3)c2)n(Cc2ccccc2Cl)n1)C(=O)O
Q. CCC(CC)(OCc1cc(-c2cccc(OC)c2)n(Cc2ccccc2Cl)n1)C(=O)O
QUERY: Parameter check: reported IC50 is higher for which label, P or Q ? Response format: the label of the selected entry.
RESULT: Q
(Q: 11 nM, P: 7.6 nM)

###

- Tested system: MCT1 (Homo sapiens (Human), UniProt P53985)
- Sequence (P53985 whole entry): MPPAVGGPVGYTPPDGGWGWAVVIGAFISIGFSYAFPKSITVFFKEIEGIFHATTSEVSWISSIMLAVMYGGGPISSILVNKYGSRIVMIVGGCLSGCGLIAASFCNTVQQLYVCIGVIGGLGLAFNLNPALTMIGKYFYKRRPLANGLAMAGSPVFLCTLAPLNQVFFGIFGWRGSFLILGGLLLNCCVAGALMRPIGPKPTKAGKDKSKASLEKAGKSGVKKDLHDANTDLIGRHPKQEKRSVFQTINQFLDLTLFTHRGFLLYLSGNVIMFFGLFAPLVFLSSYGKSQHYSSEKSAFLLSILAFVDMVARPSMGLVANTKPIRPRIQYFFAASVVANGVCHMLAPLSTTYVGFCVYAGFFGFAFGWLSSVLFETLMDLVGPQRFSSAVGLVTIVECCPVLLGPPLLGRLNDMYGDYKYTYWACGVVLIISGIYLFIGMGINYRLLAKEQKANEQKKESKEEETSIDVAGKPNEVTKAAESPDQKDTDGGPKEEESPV
- Sequence (P35613 140-385 partner): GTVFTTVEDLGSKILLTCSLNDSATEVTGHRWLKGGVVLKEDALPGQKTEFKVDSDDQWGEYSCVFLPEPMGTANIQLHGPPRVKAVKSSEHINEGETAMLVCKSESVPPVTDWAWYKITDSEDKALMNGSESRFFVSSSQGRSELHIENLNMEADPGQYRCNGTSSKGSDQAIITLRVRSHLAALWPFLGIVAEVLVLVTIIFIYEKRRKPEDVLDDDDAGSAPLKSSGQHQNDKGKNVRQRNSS
- Method description: MCT1-mediated lactate transport in BT20 breast cancer cells
- Assay type: cell-based
- Settings: native MCT1, 10 mM L-lactate, Table 3
Assay metric: IC50 (nM)

Example entries and their recorded answers appear below.
CN(C)c1cccc(-c2cc(COC(C)(C)C(=O)O)nn2Cc2ccccc2Cl)c1 : 34000
CNc1cccc(-c2cc(COC(C)(C)C(=O)O)nn2Cc2ccccc2Cl)c1 : 45000

I. CC(C)(OCc1cc(-c2cccc(C#N)c2)n(Cc2ccccc2Cl)n1)C(=O)O
II. CC(C)(OCc1cc(Oc2ccccc2)n(Cc2ccccc2Cl)n1)C(=O)O
III. CC(C)(OCc1cc(-c2cccc(OC3CC3)c2)n(Cc2ccccc2Cl)n1)C(=O)O
IV. CCC(C)(OCc1cc(-c2cccc(OC)c2)n(Cc2ccccc2Cl)n1)C(=O)O (centres unmarked)
V. CC(C)Oc1cccc(-c2cc(COC(C)(C)C(=O)O)nn2Cc2ccccc2Br)c1
QUERY: Returns the items ordered by IC50, from maximum to minimum. Respond with the label ranking, as requested.
RESULT: I, II, IV, V, III

1. CC(C)COc1cccc(-c2cc(COC(C)(C)C(=O)O)nn2Cc2ccccc2F)c1
2. COc1ccc(-c2cc(COC(C)(C)C(=O)O)nn2Cc2ccccc2Cl)s1
QUERY: Parameter check: reported IC50 is higher for which label, 1 or 2 ? Response format: the label of the selected entry.
RESULT: 2
(2: 45000 nM, 1: 27000 nM)

1. COc1cccc(-c2cc(COC(C)(C)C(=O)O)nn2Cc2ccccc2Br)c1
2. COc1ccccc1Cn1nc(COC(C)(C)C(=O)O)cc1-c1cccc(OCC(C)C)c1
QUERY: Parameter check: reported IC50 is higher for which label, 1 or 2 ? Response format: the label of the selected entry.
RESULT: 1
(1: 27000 nM, 2: 11000 nM)

A. COc1cccc(Cn2nc(COC(C)(C)C(=O)O)cc2-c2cccc(OCC(C)C)c2)c1
B. CC(C)(OCc1cc(-c2cccs2)n(Cc2ccccc2Cl)n1)C(=O)O
C. COc1cccc(-c2cc(COC(C)(C)C(=O)O)nn2Cc2ccccc2C(C)C)c1
QUERY: Returns the items ordered by IC50, from maximum to minimum. Respond with the label ranking, as requested.
RESULT: B, C, A
(B: 77000 nM, C: 42000 nM, A: 27000 nM)
